# measured-on: MASP-2 CCP2-SP (Homo sapiens (Human))
# Sequence (O00187 445-686): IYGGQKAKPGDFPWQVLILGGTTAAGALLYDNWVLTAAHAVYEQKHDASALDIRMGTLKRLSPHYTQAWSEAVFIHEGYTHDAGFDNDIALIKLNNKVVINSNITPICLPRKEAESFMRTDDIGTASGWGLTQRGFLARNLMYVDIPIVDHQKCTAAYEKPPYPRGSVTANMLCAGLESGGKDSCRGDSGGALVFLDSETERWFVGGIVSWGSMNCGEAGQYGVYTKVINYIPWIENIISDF
# Sequence (O00187 364-432 partner): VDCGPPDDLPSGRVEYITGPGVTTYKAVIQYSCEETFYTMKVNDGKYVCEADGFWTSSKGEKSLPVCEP
# test-protocol: MASP-2 co-crystallization, X-ray crystallography and structure analysis (H-bonds, van der Waals contacts)
# Design: unit not given beside the values
# stated-conditions: Table A5-1 pharmacophore: distance between elements, S2/S1 region
# From the text: This example illustrates the preparation of recombinant MASP-2 protein, based on UniProt O00187, human mannan-binding lectin serine protease 2. Expression constructs for human MASP-2 CCP2-SP and CCP2-SP-6HIS were generated for recombinant expression in E. coli cells. […]
Counter-ions that a name gives are not always drawn.
Consider the following molecules; for each one, report its d(CA1,N1)2.
// print number alone

IN: I am curious: what d(CA1,N1)2 value has been reported for Cc1cccc([C@H]2CN[C@@H](C(=O)N[C@@H](C)C(=O)NCc3ccc(N)nc3C)C2)c1 [compound 1257, Dihydrochloride] ?
OUT: 1.35

IN: Similarly, Cc1nc(N)ccc1CNC(=O)[C@H](C)NC(=O)[C@H]1C[C@@H](c2cccc3ccccc23)CCN1.Cl.Cl [1297_5] ?
OUT: 1.38

IN: Similarly, Cc1nc(N)ccc1CNC(=O)[C@H](C)NC(=O)[C@H]1C[C@@H](c2ccccc2)CCN1 [compound 1253, Dihydrochloride] ?
OUT: 1.37

IN: Similarly, Cc1nc(N)ccc1CNC(=O)[C@H](C)NC(=O)[C@H]1C[C@H](Cc2cccc(Cl)c2)CN1.Cl.Cl [1328_1] ?
OUT: 1.37

IN: Similarly, Cc1nc(N)ccc1CNC(=O)[C@H](C)NC(=O)[C@H]1C[C@H](Cc2ccc3ccccc3c2)CN1 ?
OUT: 1.37

IN: Similarly, Cc1nc(N)ccc1CNC(=O)[C@H](C)NC(=O)[C@H]1C[C@H](Cc2ccc(-c3ccccc3)cc2)CN1 ?
OUT: 1.38

IN: Similarly, C[C@H](NC(=O)[C@H](N)CCc1ccccc1)C(=O)NCc1ccc(N)nc1.Cl.Cl [1007_1] ?
OUT: 1.38

IN: Similarly, Cc1nc(N)ccc1CNC(=O)C(C)NC(=O)C1CC(c2cccc3ccccc23)CCN1.Cl.Cl (stereo not shown) [1297_6] ?
OUT: 1.38

IN: Similarly, Cc1nc(N)ccc1CNC(=O)C(C)NC(=O)C1CC(c2cccc3ccccc23)CCN1.Cl.Cl (stereo not shown) [1297_3] ?
OUT: 1.39

IN: Similarly, CC(=O)Nc1ccc(CCN[C@H](CCc2ccccc2)C(=O)N[C@@H](C)C(=O)NCc2ccc(N)nc2C)cc1 [compound 1368, Dihydrochloride] ?
OUT: 1.39

IN: Similarly, Cc1nc(N)ccc1CNC(=O)[C@H](C)NC(=O)[C@H]1C[C@H](Cc2ccccc2)CN1 ?
OUT: 1.38

IN: Similarly, Cc1nc(N)ccc1CNC(=O)[C@H](C)NC(=O)[C@H]1C[C@H](Cc2cccc(Cl)c2)CN1.Cl.Cl [1328_2] ?
OUT: 1.38

IN: Similarly, Cc1nc(N)ccc1CNC(=O)[C@H](C)NC(=O)[C@H]1C[C@@H](c2ccccc2)CCN1C ?
OUT: 1.37

IN: Similarly, Cc1nc(N)ccc1CNC(=O)C(C)NC(=O)C1CC(c2cccc3ccccc23)CCN1.Cl.Cl (stereo not shown) [1297_1] ?
OUT: 1.39

IN: Similarly, C[C@H](NC(=O)[C@H](N)CCc1ccccc1)C(=O)NCc1ccc(N)nc1.Cl.Cl [1007_2] ?
OUT: 1.38

IN: Similarly, Cc1nc(N)ccc1CNC(=O)[C@H](C)NC(=O)[C@H]1C[C@H](Cc2cccc(Cl)c2)CN1.Cl.Cl [1328_3] ?
OUT: 1.38
